Target: T1, human LRP5 domains E3-E4 (E644-Q1263 of SEQ ID NO: 42) (human, UniProt O75197 644-1263)
T1 construct: Soluble fragment made in-house; It was biotinylated for phage sorting; also called LRP5-E3/E4; LRP5E3/E4
T1 sequence: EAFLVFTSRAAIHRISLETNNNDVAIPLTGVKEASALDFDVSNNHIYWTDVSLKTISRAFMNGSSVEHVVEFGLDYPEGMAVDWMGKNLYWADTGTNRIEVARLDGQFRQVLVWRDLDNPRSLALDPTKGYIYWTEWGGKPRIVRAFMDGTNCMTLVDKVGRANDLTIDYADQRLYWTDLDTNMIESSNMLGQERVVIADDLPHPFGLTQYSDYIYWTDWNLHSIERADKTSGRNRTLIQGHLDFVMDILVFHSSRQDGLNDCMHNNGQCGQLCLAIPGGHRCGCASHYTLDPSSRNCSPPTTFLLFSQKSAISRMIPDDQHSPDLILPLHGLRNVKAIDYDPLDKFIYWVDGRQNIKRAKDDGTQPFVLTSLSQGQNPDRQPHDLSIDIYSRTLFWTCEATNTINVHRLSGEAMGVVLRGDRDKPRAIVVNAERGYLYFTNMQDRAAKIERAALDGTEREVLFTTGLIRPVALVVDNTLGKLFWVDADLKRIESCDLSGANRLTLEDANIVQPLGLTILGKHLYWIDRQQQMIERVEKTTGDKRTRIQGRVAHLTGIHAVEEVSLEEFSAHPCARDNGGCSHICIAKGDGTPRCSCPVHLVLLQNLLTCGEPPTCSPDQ
Experiment: SPR, BIAcore T100, IgG captured by anti-human Fc, LRP5E3/E4 as analyte, 25 C
Procedure: Binding affinities of anti-LRP5E3/E4 IgGs were measured by Surface Plasmon Resonance (SPR) using a BIAcore™-T100 instrument. […] Association rates (kₒₙ) and dissociation rates (koff) were calculated using a simple one-to-one Langmuir binding model (BIAcore Evaluation Software version 2.0.2). The equilibrium dissociation constant (KD) was calculated as the ratio koff/kₒₙ.
# reported Kd; entries follow

{"columns": ["binder", "Kd (nM)"],
 "data": [
  ["YW629.42.58 (antibody, human IgG1, V domains shown, also called P6C.42.58) VH: EVQLVESGGGLVQPGGSLRLSCAASGFTFSSYAMSWVRQAPGKGLEWVGAISSPGWSTYYADSVKGRFTISRDNSKNTLYLQMNSLRAEDTAVYYCARYYRYAPYRSLGMDVWGQGTLVTVSS VL: DIQMTQSPSSLSASVGDRVTITCRASQGISSYLAWYQQKPGKAPKLLIYAASSLQSGVPSRFSGSGSGTDFTLTISSLQPEDFATYYCQQYYSYPFTFGQGTKVEIKR", 2.78],
  ["YW629.51.77 (antibody, human IgG1, V domains shown, also called P6C.51.77) VH: EVQLVESGGGLVQPGGSLRLSCAASGFTFSSYAMHWVRQAPGKGLEWVSRISSNGGSTYYADSVKGRFTISRDNSKNTLYLQMNSLRAEDTAVYYCARWIPQSYPFASYKSGFDYWGQGTLVTVSS VL: DIQMTQSPSSLSASVGDRVTITCRASQVIYGYLAWYQQKPGKAPKLLIYDASTRESGVPSRFSGSGSGTDFTLTISSLQPEDFATYYCQQYYSYPFTFGQGTKVEIKR", 0.438],
  ["YW629.51.63 (antibody, human IgG1, V domains shown, also called P6C.51.63) VH: EVQLVESGGGLVQPGGSLRLSCAASGFTFSSYAMHWVRQAPGKGLEWVSRISSNGGSTYYADSVKGRFTISRDNSKNTLYLQMNSLRAEDTAVYYCARWIPQSYPFASYKSGFDYWGQGTLVTVSS VL: DIQMTQSPSSLSASVGDRVTITCRASQSIYYYLAWYQQKPGKAPKLLIYDASSLESGVPSRFSGSGSGTDFTLTISSLQPEDFATYYCQQYYSYPFTFGQGTKVEIKR", 0.592],
  ["YW629.42.65 (antibody, human IgG1, V domains shown, also called P6C.42.65) VH: EVQLVESGGGLVQPGGSLRLSCAASGFTFSSYAMSWVRQAPGKGLEWVGGISSPGSSTYYADSVKGRFTISRDNSKNTLYLQMNSLRAEDTAVYYCARYYRYAPYRSLGMDVWGQGTLVTVSS VL: DIQMTQSPSSLSASVGDRVTITCRASQGISSYLAWYQQKPGKAPKLLIYAASSLQSGVPSRFSGSGSGTDFTLTISSLQPEDFATYYCQQYYLYPFTFGQGTKVEIKR", 2.54]
]}
